# System: velvetleaf
# assay.name: Test B pre-/postemergence herbicide test
# Format: in vivo, Abutilon theophrasti
# details: postemergence, 500 g ai/ha; scale 0 to 100, 0 is no effect, 100 is complete control
Measured Velvetleaf plant response rating, listed per entry.
Lab note: record the figure alone, no unit after it.

Solved cases below.
[
  {
    "molecule": "CCn1nc(C(C)(C)C)cc1C(=O)Nc1cccc(OC(F)F)c1 [Compound 332]",
    "observed.result": 90
  },
  {
    "molecule": "CCOC(=O)c1cccc(NC(=O)c2cc(C(C)(C)C)nn2C)n1 [Compound 313]",
    "observed.result": 70
  },
  {
    "molecule": "CCNC(=O)c1ccc(F)c(NC(=O)c2cn(C(C)(C)C)nc2C)c1 [Compound 345]",
    "observed.result": 10
  },
  {
    "molecule": "CCn1nc(C(C)(C)C)cc1C(=O)Nc1cc(OCCF)ccc1F [Compound 350]",
    "observed.result": 10
  }
]

## Task # lookup: Velvetleaf plant response rating of CCn1nc(C(C)(C)C)cc1C(=O)Nc1cncc(C(=O)N(C)C)c1 [Compound 258]
## Result 0

----------
# System: morningglory
# assay.name: Test B pre-/postemergence herbicide test
# Format: in vivo, Ipomoea coccinea
# details: 500 g ai/ha; visual rating, 0 = no effect, 100 = complete control; preemergence
# Method: […] At the same time, plants selected from these crop and weed species and also blackgrass (Alopecurus myosuroides Huds.), wheat (Triticum aestivum L.) and wild oat (Avena fatua L.) were treated with postemergence applications of test chemicals formulated in the same manner. […] Treated plants and controls were maintained in a greenhouse for 13 to 15 days, after which time all species were compared to controls and visually evaluated. […]
property.label: Plant response rating, Morningglory
The reply should be a number, written without any unit.

## Task For the molecule "CCc1nn(C(C)(C)C)cc1C(=O)Nc1cc(C(=O)N(CC)CC)ccc1F" , what Plant response rating, Morningglory is on record?
## Result 30

## Task Quick one: Plant response rating, Morningglory for "CCn1nc(C(C)(C)C)cc1C(=O)Nc1cc(OC)ccc1F" ?
## Result 0

## Task Can you look up the measured Plant response rating, Morningglory of "CCNC(=O)c1ccc(F)c(NC(=O)c2c3c(nn2CC)C(C)(C)CC3)c1" for me?
## Result 20

## Task For "CCOC(=O)c1cccc(NC(=O)c2cc(C(C)(C)C)nn2C)n1" , what is its reported Plant response rating, Morningglory?
## Result 40

## Task Bench note: what Plant response rating, Morningglory did CCC1=NN(C(C)(C)C)CC1C(=O)Nc1cc(C(=O)N(C)C)ccc1F (racemic) show?
## Result 100

## Task Need Plant response rating, Morningglory, item "CCn1nc(C(C)(C)C)cc1C(=O)Nc1cc(C(=S)N(C)C)ccc1F"
## Result 20

## Task Look up Plant response rating, Morningglory for this molecule: "CCOC(=O)c1cc(NC(=O)c2cc(C(C)(C)C)nn2CC)c(F)cc1F"
## Result 0

## Task Need Plant response rating, Morningglory, item "C=CCN(C)C(=O)c1cccc(NC(=O)c2cc(C(C)(C)C)nn2CC)c1"
## Result 10

## Task Plant response rating, Morningglory lookup needed for "CCN(CC)C(=O)c1cccc(NC(=O)c2nn(C(C)(C)C)cc2Br)c1" , thanks.
## Result 0

## Task I am curious: what Plant response rating, Morningglory value has been reported for "CCc1nn(C(C)(C)C)cc1C(=O)Nc1ccc(F)c(C(=O)N(CC)CC)c1" ?
## Result 0

## Task So what does the record say about Plant response rating, Morningglory for "CCc1nc(C(C)(C)C)sc1C(=O)Nc1cc(C(=O)N(CC)CC)ccc1F" ?
## Result 10

## Task For the molecule "CCc1nn(C2CCCC2)nc1C(=O)Nc1cccc(C(=O)N2CC=CC2)c1" , what Plant response rating, Morningglory is on record?
## Result 0

## Task Which value of Plant response rating, Morningglory has been reported for CCOC(=O)c1ccc(F)c(NC(=O)C2CN(C(C)(C)C)N=C2CC)c1 (racemic) in the records?
## Result 10

## Task Can you share its Plant response rating, Morningglory? I mean this molecule: "CCn1nc(C(C)(C)C)cc1C(=O)Nc1cc(OCCF)ccc1F"
## Result 0

## Task Name the reported Plant response rating, Morningglory value associated with the molecule "CCc1cn(C(C)(C)C)nc1C(=O)Nc1cc(C(=O)N(CC)CC)ccn1"
## Result 0

## Task Which Plant response rating, Morningglory value belongs to "C=CCNC(=O)c1ccc(F)c(NC(=O)c2sc(CC)nc2C(C)(C)C)c1" ?
## Result 20

## Task Look up Plant response rating, Morningglory: "CCc1nn(C(C)(C)C)cc1C(=O)Nc1cc(C(=O)N(C)C)ccn1"
## Result 100

## Task So what's the measured Plant response rating, Morningglory for this one? CCN(C)C(=O)c1ccc(F)c(NC(=O)C2CC(C(C)(C)C)=NN2CC)c1 (racemic)
## Result 10

## Task Return reported Plant response rating, Morningglory; argument: "CCNC(=O)c1ccc(OC)c(NC(=O)c2cc(C(C)(C)C)nn2CC)n1"
## Result 10
